- target-entity: HLA-A*0206 (human)
- experiment-description: competition with 125I-labelled standard peptide on purified HLA, gel filtration
- run-conditions: remark: other sources report otherwise
pIC50: −log10 of the molar value.
measured-metric: pIC50

AASLSLGFLFL (modifications not checked) [peptide 63.0137 … (PAP.11)]	7.02

I. LLLARAASV (modifications not checked) [peptide 60.0201 … (PAP.6.V9)]
II. TLMSAMTNLA (modifications not checked) [peptide 20.0312 … (PAP.112)]
III. LLARAASLSV (modifications not checked) [peptide 63.0031 … (PAP.7.V10)]
IV. LLARAASLSL (modifications not checked) [peptide 20.0203 … (PAP.7)]
Arrange items by their pIC50 values in increasing order. Please reply with the labels ordered as requested. Many thanks. IV, II, III, I
(IV: 5.03, II: 5.43, III: 6.42, I: 7.02)
